- target or test system: Integration Host Factor (IHF) (Escherichia coli (purified from E. coli …, UniProt P0A6X7;P0A6Y1 1-99;1-94))
- Sequence (P0A6X7 whole entry, chain 1 of 2): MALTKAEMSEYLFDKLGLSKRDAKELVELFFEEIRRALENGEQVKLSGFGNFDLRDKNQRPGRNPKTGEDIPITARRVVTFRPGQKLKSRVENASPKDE
- Sequence (P0A6Y1 whole entry, chain 2 of 2): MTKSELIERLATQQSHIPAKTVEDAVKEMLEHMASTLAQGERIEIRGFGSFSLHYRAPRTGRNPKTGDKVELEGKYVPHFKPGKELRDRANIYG
- method description: EMSA; 1 mM Mg2+; apparent; 5 mM Tris-HCl pH 7.4-7.6, 70 mM KCl, 0.1 mM EDTA, 0.5-10% ethylene glycol, fluorescence at 10 C; Mg buffer: 5 mM Tris-HCl pH 7.4, 1 mM MgCl2, 10% ethylene glycol; stopped flow 20 C with 0.01% NP-40
- test parameters: protein: recombinant; copies: 1;1; label: none for EMSA (SYBR Green); 5' TAMRA for fluorescence intensity; donor-acceptor pair for stopped flow; four-way junction of 4 strands (20 nt), four 10 bp arms
quantity: Kd

Endpoint output: Kd of J20 junction (structured_DNA) DNA 1: CCACCGCTCAACTCAACTGC DNA 2: GCAGTTGAGTCCTTGCTAGG DNA 3: CCTAGCAAGGGGCTGCTACC DNA 4: GGTAGCAGCCTGAGCGGTGG . Value?
514 nM
